Molecular target: HLA-DR molecule DRB1*1302 (DR6w19) (human)
Assay: inhibition of radiolabelled probe peptide binding to purified MHC class II
Measured IC50, listed per entry.
reported metric: IC50 (nM)

[[record]]
binder = "GLRSLTTLLDALGAQ [EPO 101 analog peptide GLRSLTTLLDALGAQ (SEQ ID NO: 193)]"
reported_metric = "IC50"
unit_abbrev = "nM"
reported = 953

[[record]]
binder = "GLRSLTTLLGALGAQ [EPO 101 analog peptide GLRSLTTLLGALGAQ (SEQ ID NO: 194)]"
reported_metric = "IC50"
unit_abbrev = "nM"
reported = 858

